Data provenance is paper PMC6791425.

Biological target: PSMA expressed on LNCaP cells (Homo sapiens)
Sequence (Q04609 whole entry): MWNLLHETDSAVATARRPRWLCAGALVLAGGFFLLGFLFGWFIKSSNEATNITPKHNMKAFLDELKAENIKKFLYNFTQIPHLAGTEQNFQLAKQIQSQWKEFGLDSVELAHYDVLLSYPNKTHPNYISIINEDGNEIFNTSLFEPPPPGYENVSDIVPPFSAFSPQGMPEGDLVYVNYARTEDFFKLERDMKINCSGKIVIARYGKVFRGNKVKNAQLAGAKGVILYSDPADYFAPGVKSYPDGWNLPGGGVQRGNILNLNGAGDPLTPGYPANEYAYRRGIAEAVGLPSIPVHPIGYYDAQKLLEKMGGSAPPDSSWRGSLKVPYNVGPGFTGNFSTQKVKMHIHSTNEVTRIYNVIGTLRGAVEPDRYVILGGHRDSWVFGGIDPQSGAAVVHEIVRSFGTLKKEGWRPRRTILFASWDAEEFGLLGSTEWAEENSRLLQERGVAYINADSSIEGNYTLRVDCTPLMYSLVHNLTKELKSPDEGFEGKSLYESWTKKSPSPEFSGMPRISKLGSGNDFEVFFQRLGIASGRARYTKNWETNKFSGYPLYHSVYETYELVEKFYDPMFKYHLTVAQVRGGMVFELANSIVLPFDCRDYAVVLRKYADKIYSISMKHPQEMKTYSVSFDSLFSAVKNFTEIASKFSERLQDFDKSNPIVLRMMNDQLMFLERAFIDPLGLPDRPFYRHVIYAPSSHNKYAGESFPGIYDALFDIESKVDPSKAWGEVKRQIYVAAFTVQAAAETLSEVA
property: IC50 (nM)

>  <mol>
O=C(O)CCc1ccc(O)c(CN(CCN(CC(=O)O)Cc2cc(CCC(=O)NCCCCCC(=O)NCCCC[C@H](NC(=O)N[C@@H](CCC(=O)O)C(=O)O)C(=O)O)ccc2O)CC(=O)O)c1

>  <unitSpec>
nM

>  <valueReported>
14.8

$$$$
